B1: PPP2R2B (parent)
chain: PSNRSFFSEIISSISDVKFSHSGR

Variants of: B1
Method Summary: protein stability index of a GFP-peptide fusion (GPS, HEK-293T) (PSI 1-6); higher = more stable;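 further: lentivirally expressed fusions sorted by FACS into six bins by GFP to DsRed ratio, PSI derived from sequencing read proportions per bin multiplied by bin number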
Measurement Conditions: c terminus: a fixed tail appended
// label = yes (1) if protein stability index is not less than 2, otherwise no (0)

Identify whether the reported protein stability index of the following variant is 2 or greater: F19Q yes (1)

Now try D16Y . no (0)

Now try R24K . yes (1)

Now try D16H . yes (1)

Now try R4W . no (0)

Now try S5T . yes (1)

Now try K18S . yes (1)

Now try K18Q . yes (1)

Further cases:
Identify whether the reported protein stability index of the following variant is 2 or greater: S22P yes (1)

Now try S15V . yes (1)

Now try R4I . yes (1)

Now try S15A . no (0)

Now try V17W . yes (1)

Now try I11N . yes (1)

Now try S15G . yes (1)

Now try R24F . no (0)

Now try S2Q . yes (1)
